system.name: T1, human GIP receptor (human, UniProt P48546 22-466)
T1 construct: whole, on cells; also called hGIPR; hGIP-R
T1 sequence (looked up): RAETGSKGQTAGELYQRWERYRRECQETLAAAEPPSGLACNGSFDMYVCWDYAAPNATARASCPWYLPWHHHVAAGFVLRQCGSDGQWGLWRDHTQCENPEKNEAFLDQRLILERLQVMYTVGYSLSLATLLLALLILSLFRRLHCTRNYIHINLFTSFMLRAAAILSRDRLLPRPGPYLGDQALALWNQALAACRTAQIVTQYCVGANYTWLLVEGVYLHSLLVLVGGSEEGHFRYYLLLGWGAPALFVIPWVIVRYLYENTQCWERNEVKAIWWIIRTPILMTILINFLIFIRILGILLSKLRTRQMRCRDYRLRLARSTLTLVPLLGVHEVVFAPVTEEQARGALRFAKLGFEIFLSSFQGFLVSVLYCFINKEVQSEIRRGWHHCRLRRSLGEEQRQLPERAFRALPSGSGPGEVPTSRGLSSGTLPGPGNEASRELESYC
procedure.summary: [125I]-GIP competition SPA, hGIPR membranes
Protocol: The binding buffer contains 25 mM HEPES, pH 7.4, 2.5 mM CaCl₂, 1 mM MgCl₂, 0.1% (w/v) bacitracin, 0.003% (w/v) TWEEN®-20, and Roche Complete™ Protease Inhibitors without EDTA. […] Plates are sealed and mixed on a plate shaker (setting 6) for 1 minute and read with a PerkinElmer Trilux MicroBeta® scintillation counter after 2.5 to 12 hours of incubation/settling time at room temperature. […]
property.name: pKi
Here pKi is given on a logarithmic scale as minus log10 of the concentration in mol/L.

1) YXEGTXTSDYSILLDKKAQXEFIEYLIEGGPSSG (Aib2; αMeF6; K17((2-[2-(2-Amino-ethoxy)-ethoxy]-acetyl)2-(γ-Glu)-CO-(CH2)16-CO2H); Aib20; C-terminal NH2) [Example 308] : 10.54

Return value of pKi for input YXEGTXTSDXSIXLDXKAQXEFIXYLIEGGPSSGAPPPS (Aib2; αMeF6; 4Pal10; αMeL13; Dab16; K17((2-[2-(2-Amino-ethoxy)-ethoxy]-acetyl)2-(γ-Glu)-CO-(CH2)16-CO2H); Aib20; D-Glu24; C-terminal NH2) [Example 235] , no commentary. 10.24

Identify the reported pKi for the following entry. YXEGTFTSDYSIXLDKKAQXEFIEYLIEGGPSSG (Aib2; αMeL13; K17((2-[2-(2-Amino-ethoxy)-ethoxy]-acetyl)2-(γ-Glu)-CO-(CH2)16-CO2H); Aib20; C-terminal NH2) [Example 304] 10.30

For the binder YXEGTXTSDASIXLDXKAQXAFIXXLIEGGPSSGAPPPS (Aib2; αMeF(2F)6; αMeL13; Orn16; K17((2-[2-(2-Amino-ethoxy)-ethoxy]-acetyl)2-(γ-Glu)-CO-(CH2)16-CO2H); Aib20; D-Glu24; αMeY25; C-terminal NH2) [Example 246] , give its measured pKi value. 10.29

Give the reported value of pKi for this record: FXEGTFTSDYSIXLDKKAQXAFIEYLIAGGPSSGAPPPS (Aib2; αMeL13; K17((2-[2-(2-Amino-ethoxy)-ethoxy]-acetyl)2-(γ-Glu)-CO-(CH2)18-CO2H); Aib20; C-terminal NH2) [Example 337] 10.44

Quickly give me recorded pKi for YXEGTFTSDYSILLDKKAQAAFIEYLIEGGPSSGAPPPS (Aib2; K17((2-[2-(2-Amino-ethoxy)-ethoxy]-acetyl)2-(γ-Glu)-CO-(CH2)18-CO2H); C-terminal NH2) [Example 253] 9.86

Taken from patent US20200024322A1.
